Just for reference, ChEMBL document CHEMBL1136535 is where these values come from.

tested target: Adenosylhomocysteinase (Homo sapiens, UniProt P23526)
Sequence (P23526 whole entry): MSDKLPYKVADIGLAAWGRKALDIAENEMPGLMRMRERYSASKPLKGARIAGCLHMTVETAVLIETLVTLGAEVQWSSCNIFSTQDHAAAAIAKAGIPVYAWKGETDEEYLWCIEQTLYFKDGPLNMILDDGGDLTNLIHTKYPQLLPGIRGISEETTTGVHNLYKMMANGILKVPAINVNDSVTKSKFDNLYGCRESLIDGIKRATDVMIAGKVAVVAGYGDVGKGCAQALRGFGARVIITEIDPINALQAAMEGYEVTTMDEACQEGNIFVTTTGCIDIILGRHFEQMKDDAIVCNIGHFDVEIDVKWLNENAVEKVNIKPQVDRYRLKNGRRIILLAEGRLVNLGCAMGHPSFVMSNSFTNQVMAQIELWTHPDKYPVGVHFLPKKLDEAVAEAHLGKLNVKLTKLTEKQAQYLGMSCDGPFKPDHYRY
assay notes: Inhibitory activity against S-adenosyl-L-homocysteine hydrolase was determined in hydrolysis direction
result type: Ki (µM)
A number alone suffices; assume µM.

[in] Which value of Ki has been reported for Nc1nc(O)cc(-c2cncn2C2O[C@H](CO)[C@@H](O)[C@H]2O)n1 (stereo partly specified) in the records?
[out] 128
